System: GT-1a of NS5A Replicon
Protocol notes: HCV double reporter gene (Renilla luciferase) replicon assay, GT-1a
Assay type: cell-based, Hepatitis C virus (HCV)
Experimental parameters: Hepatitis C virus, GT1A, GT-1a replicon; class symbols; read-out: EC50 For GT-1a of NS5A Replicon
Please provide measured EC50 for the entries that follow.

>>> measured_value("COC(=O)N[C@@H](C(=O)N1CCCC1c1ncc(-c2ccc(-c3cc4sc(-c5cnc([C@@H]6CCCN6C(=O)[C@H](NC(=O)OC)c6ccccc6)[nH]5)cc4s3)cc2)[nH]1)c1ccccc1 (stereo partly drawn) [Ref-3, reference compound]")
"0.001 to 0.999 nM"
>>> measured_value("CC(C)[C@H](NC(=O)OC1CCCC1)C(=O)N1CC=CC1c1ncc(-c2ccc(-c3ccc(-c4c[nH]c([C@@H]5C=CCN5C(=O)[C@@H](NC(=O)OC5CCCC5)C(C)C)n4)cc3)cc2)[nH]1 (stereo partly drawn)")
"> 50 nM"
>>> measured_value("COC(=O)N[C@H](C(=O)N1CCC[C@H]1c1nc(-c2ccc(-c3ccc(-c4cnc([C@@H]5C[C@@H](OC(=O)N6Cc7cc8c(cc7C6)OCO8)CN5C(=O)[C@@H](NC(=O)OC(C)(C)C)C(C)C)[nH]4)cc3)cc2)c[nH]1)C(C)C")
"1 to 49.9 nM"
>>> measured_value("COC(=O)N[C@H](C(=O)N1CCCC1c1nc2cc(-c3ccc4c(c3)C(F)(F)c3cc(-c5c[nH]c([C@@H]6C=CCN6C(=O)[C@@H](NC(=O)OC)C(C)C)n5)ccc3-4)ccc2[nH]1)C(C)C (stereo partly drawn)")
"0.001 to 0.999 nM"

Dear colleague, could you please provide EC50 for the compounds listed below?
1. COC(=O)N[C@H](C(=O)N1CCCC1c1nc(-c2ccc(-c3ccc(-c4c[nH]c([C@@H]5CCCN5C(=O)C5(NC(=O)OC)CCCC5)n4)cc3)cc2)c[nH]1)C(C)C (stereo partly drawn)
2. COC(=O)N[C@H](C(=O)N1CN(C(=O)N2Cc3cc(OC)c(OC)cc3C2)CC1c1nc(-c2ccc(-c3ccc(-c4c[nH]c([C@@H]5CCCN5C(=O)[C@@H](NC(=O)OC)C(C)C)n4)cc3)cc2)c[nH]1)C(C)C (stereo partly drawn)
3. COC(=O)N[C@H](C(=O)N1CC(OC(=O)N2Cc3cc4c(cc3C2)OCO4)CC1c1nc(-c2ccc(-c3ccc(-c4c[nH]c([C@@H]5CC6(CC6)CN5C(=O)[C@@H](NC(=O)OC)C(C)C)n4)cc3)cc2)c[nH]1)C(C)C (stereo partly drawn)

1. 0.001 to 0.999 nM
2. 0.001 to 0.999 nM
3. 0.001 to 0.999 nM

Give one value of EC50 per listed compound.
1. COC(=O)NC(C(=O)N1CC=C[C@H]1c1ncc(-c2ccc(-c3cc4sc(-c5cnc([C@@H]6CCCN6C(=O)[C@H](NC(=O)OC)c6ccccc6)[nH]5)cc4o3)cc2)[nH]1)c1ccccc1 (stereo partly drawn)
2. COC(=O)N[C@H](C(=O)N1CCC[C@H]1c1nc(-c2ccc(-c3ccc(-c4cnc([C@@H]5C[C@@H](OC(=O)N6Cc7cccc(F)c7C6)CN5C(=O)[C@@H](NC(=O)OC(C)(C)C)C(C)C)[nH]4)cc3)cc2)c[nH]1)C(C)C

1: 0.001 to 0.999 nM; 2: 1 to 49.9 nM

Taken from patent US9820972B2.
